molecular target: Aldehyde dehydrogenase 1A1 (Homo sapiens) (UniProt P00352); experiment: qHTS Assay for Inhibitors of Aldehyde Dehydrogenase 1 (ALDH1A1); details: Purified ALDH1A1, NADH fluorescence, propionaldehyde substrate; series mostly up to 75.3 µM
Sequence (P00352 whole entry, looked up): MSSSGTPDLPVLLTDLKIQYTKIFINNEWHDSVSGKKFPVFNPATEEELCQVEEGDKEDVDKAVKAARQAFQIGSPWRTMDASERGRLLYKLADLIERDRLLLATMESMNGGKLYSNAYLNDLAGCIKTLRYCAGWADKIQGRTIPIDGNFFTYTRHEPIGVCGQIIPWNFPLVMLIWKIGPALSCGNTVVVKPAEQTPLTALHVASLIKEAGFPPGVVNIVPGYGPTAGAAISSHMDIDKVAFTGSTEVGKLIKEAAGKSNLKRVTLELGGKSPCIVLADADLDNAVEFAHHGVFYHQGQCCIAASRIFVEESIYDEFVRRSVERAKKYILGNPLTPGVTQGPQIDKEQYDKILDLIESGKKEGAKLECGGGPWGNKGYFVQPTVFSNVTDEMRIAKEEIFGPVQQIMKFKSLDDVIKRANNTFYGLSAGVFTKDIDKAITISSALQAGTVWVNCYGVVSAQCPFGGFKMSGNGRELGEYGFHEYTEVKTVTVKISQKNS
About 16,000 (7.3%) of roughly 220,000 compounds were called active. Another 25% or so got no clear call; they are omitted. Calls come from the whole dose curve; as a rule, active = well fitted inhibition curve with a large enough effect (not every such curve was filed as active); inconclusive = small, poorly fitted or top-dose-only effect, or another doubt; inactive = no such curve, though single readings can be large or run the other way. The list comes from a sample in which actives are over-represented; it also holds close analogues and randomly drawn compounds.
Your response should consist of one outcome taken from active, inactive

Would you please look over these solved cases?
Challenge: What call does the record list for NS(=O)(=O)c1ccc(NC(=O)COC(=O)CCc2c[nH]c3ccccc23)cc1 ?
Response given: inactive

Challenge: // outcome(item) with item = O=c1[nH]c(CN2CCOCC2)nc2scc(-c3ccccc3)c12
Response given: inactive

Challenge: Which outcome did this test record for the compound Cc1cc([N+](=O)[O-])c(N2CCC[C@@H]2C(=O)O)c([N+](=O)[O-])c1 ?
Response given: inactive

Challenge: I'd appreciate the recorded outcome for COc1ccc(/C=N/NC(=O)c2ccncc2)cc1CN1CCCc2ccccc21 from this test.
Response given: inactive

Challenge: Assay outcome for CCOC(=O)CN/C=C(\C#N)c1ccc(F)cc1 : what was it?
Response given: inactive

Challenge: Test call, this compound: CC(=O)Cn1ncc(N2CCOCC2)c(Br)c1=O
Response given: inactive

Challenge: For CSc1cc(C)[nH]c(=O)n1 , which call appears in the assay record?
Response given: inactive

Challenge: Record request — test call for CC1CN(C(=S)SCC(=O)c2ccccc2)CC(C)O1 (stereo not given)
Response given: inactive

Challenge: What did this assay record as the result for COc1cccc(OC)c1C(=O)Nc1nnc(C(C)C)s1 ?
Response given: active

Challenge: What classification did Cc1cc(C)cc(NC(=O)CSc2ccccc2)c1 end up with in this test?
Response given: inactive

More entries:
Challenge: Called result for CC(C)(C)N(Cc1ccccc1)C(=O)COC(=O)CCc1c[nH]c2ccccc12
Response given: inactive

Challenge: Tell me the assay call for Cc1noc(C)c1S(=O)(=O)Nc1cc(C(F)(F)F)ccc1N1CCOCC1 please.
Response given: inactive

Challenge: How was Cc1ccc(NC(=O)c2ccccn2)cc1S(=O)(=O)N1CCOCC1 classified in this test?
Response given: inactive

Challenge: Each compound tested received a call. Report the one for Cn1nnnc1SCC(=O)Nc1nc2ccccc2s1 .
Response given: inactive

Challenge: Returns: the outcome recorded for O=C(CSc1nnc(C2CC2)n1Cc1ccccc1)Nc1cccnc1Cl in this assay.
Response given: inactive
